target: HiBiT-tagged IKZF1 (Homo sapiens, UniProt Q13422+Q96SW2); construct: expressed in transfected cells; host or cells: HT-1080 (ATCC CCL-121), lentiviral transduction; experiment: Degradation assay for IKZF1 (HiBiT tag bioluminescence assay); format: cell-based; conditions: HT-1080, Table 1; HT-1080 IKZF1 HiBiT reporter cells; maximum percentage of protein degradation
Sequence (Q13422 whole entry): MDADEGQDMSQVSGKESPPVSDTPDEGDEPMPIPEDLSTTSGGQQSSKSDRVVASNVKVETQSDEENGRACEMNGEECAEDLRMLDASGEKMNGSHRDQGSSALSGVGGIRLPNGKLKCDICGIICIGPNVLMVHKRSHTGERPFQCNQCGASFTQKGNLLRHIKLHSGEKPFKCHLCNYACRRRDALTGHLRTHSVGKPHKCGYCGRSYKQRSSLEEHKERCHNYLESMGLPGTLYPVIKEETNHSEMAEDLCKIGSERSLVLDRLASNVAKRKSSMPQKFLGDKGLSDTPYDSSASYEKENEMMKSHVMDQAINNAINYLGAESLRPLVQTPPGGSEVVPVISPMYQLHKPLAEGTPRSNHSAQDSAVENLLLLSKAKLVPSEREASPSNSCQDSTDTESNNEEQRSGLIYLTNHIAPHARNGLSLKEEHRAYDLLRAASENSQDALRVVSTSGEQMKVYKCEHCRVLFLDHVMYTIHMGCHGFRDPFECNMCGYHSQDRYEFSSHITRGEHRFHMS
Sequence (Q96SW2 whole entry): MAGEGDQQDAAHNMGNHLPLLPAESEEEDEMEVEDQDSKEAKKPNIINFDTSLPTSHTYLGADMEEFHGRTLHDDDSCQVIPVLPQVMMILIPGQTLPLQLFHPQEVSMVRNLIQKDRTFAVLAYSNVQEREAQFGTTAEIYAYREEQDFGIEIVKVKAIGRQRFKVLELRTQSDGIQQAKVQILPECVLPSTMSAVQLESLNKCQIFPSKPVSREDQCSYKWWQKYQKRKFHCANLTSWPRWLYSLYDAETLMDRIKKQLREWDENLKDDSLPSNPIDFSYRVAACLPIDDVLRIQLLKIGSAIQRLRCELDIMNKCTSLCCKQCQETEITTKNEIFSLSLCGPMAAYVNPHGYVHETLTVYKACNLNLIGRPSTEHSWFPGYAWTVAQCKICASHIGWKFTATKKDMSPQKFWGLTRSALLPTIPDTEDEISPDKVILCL
Sequence (Q16531 whole entry partner): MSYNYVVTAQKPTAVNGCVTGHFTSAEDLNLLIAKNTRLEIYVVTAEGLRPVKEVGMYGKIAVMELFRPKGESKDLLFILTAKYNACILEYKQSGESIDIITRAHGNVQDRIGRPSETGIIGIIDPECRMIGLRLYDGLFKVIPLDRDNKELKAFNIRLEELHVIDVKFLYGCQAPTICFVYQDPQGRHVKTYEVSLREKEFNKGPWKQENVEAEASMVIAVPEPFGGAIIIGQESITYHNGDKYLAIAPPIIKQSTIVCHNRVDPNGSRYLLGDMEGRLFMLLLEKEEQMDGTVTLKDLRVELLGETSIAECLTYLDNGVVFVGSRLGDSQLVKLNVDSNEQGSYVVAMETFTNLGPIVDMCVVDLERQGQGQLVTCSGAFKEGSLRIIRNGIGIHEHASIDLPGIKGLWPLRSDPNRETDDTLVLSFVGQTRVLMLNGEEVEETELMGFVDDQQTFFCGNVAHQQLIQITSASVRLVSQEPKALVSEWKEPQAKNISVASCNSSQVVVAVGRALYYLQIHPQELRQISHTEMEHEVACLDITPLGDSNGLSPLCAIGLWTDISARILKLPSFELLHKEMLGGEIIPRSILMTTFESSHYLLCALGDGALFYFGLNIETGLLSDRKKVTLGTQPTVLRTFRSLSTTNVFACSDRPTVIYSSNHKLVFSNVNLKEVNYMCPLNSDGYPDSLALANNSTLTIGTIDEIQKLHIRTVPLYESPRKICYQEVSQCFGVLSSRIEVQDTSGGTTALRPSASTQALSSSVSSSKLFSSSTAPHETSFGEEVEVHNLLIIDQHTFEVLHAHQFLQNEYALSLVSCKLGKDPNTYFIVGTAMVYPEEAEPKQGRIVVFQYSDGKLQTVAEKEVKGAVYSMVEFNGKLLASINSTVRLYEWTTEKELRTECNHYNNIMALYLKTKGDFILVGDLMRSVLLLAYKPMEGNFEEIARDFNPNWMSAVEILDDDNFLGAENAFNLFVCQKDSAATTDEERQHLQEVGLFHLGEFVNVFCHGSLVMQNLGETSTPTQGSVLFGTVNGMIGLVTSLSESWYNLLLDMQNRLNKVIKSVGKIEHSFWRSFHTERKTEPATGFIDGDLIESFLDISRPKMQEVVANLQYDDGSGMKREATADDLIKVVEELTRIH
PROPERTY_LABEL: Dmax (%)

INSERT INTO assay_data (compound, measured_on, units_symbol, reported) VALUES
  ('N#Cc1ccc2c(c1)OC[C@H]1CN(Cc3ccc(Cc4ccc5c6c(cccc46)C(=O)N5C4CCC(=O)NC4=O)cc3)CCN21 (stereo partly shown)', 'HiBiT-tagged IKZF1 (Homo sapiens, UniProt Q13422+Q96SW2)', '%', 93.3),
  ('O=C1CCC(N2C(=O)c3cc(F)cc4c(Cc5ccc(CN6CC(N7CCOCC7)C6)cc5F)ccc2c34)C(=O)N1 (stereo not shown)', 'HiBiT-tagged IKZF1 (Homo sapiens, UniProt Q13422+Q96SW2)', '%', 74.6),
  ('N#Cc1ccc(N2CCN(Cc3ccc(Cc4ccc5c6c(cc(F)cc46)C(=O)N5C4CCC(=O)NC4=O)cc3)CC2)c(F)c1 (stereo not shown)', 'HiBiT-tagged IKZF1 (Homo sapiens, UniProt Q13422+Q96SW2)', '%', 91.6),
  ('O=C1CCC(N2C(=O)c3cc(F)cc4c(Cc5ccc(CN6CCC(N7CCOCC7)CC6)cc5F)ccc2c34)C(=O)N1 (stereo not shown)', 'HiBiT-tagged IKZF1 (Homo sapiens, UniProt Q13422+Q96SW2)', '%', 66.2),
  ('CC(C)(C)N1CCN(Cc2ccc(Cc3ccc4c5c(cc(F)cc35)C(=O)N4C3CCC(=O)NC3=O)c(F)c2)CC1 (stereo not shown)', 'HiBiT-tagged IKZF1 (Homo sapiens, UniProt Q13422+Q96SW2)', '%', 87.3),
  ('O=C1CCC(N2C(=O)c3cc(F)cc4c(Cc5ccc(CN6CCOCC6)cc5F)ccc2c34)C(=O)N1 (stereo not shown)', 'HiBiT-tagged IKZF1 (Homo sapiens, UniProt Q13422+Q96SW2)', '%', 75.2),
  ('N#Cc1cnc2c(c1)OC[C@H]1CN(Cc3ccc(Cc4ccc5c6c(cc(F)cc46)C(=O)N5C4CCC(=O)NC4=O)c(F)c3)CCN21 (stereo partly shown)', 'HiBiT-tagged IKZF1 (Homo sapiens, UniProt Q13422+Q96SW2)', '%', 88.3);
